// reported Giardia (16 uM) Mean % inhibition for each item listed
Tested on: G. lamblia trophozoites (luciferase expressing, WBC6)
PROCEDURE SUMMARY: microbe, parasite or virus in culture
Format: cell-based, Giardia lamblia
ASSAY CONTEXT: initial Pathogen Box screen, single concentration 16 µM, inhibition compared to DMSO wells

COMPOUND	SYSTEM NAME	Giardia (16 uM) Mean % inhibition [%]
O=C(Nc1ccccc1-c1nc2c(C(=O)O)cccc2o1)c1ccccc1 [MMV676162]	G. lamblia trophozoites (luciferase expressing, WBC6)	1.55
O=C1N(Cc2cc3ccccc3s2)CC2CN(Cc3ccccc3)CCN12 (centres unmarked) [MMV084603]	G. lamblia trophozoites (luciferase expressing, WBC6)	62
CC(C)n1nc(-c2cc3c(Cl)cccc3[nH]2)c2c(N)ncnc21 [MMV688417]	G. lamblia trophozoites (luciferase expressing, WBC6)	77
COc1ccc(C2=NN(C3CCCCCC3)C(=O)[C@@H]3CC=CC[C@H]23)cc1OCCCCOc1ccc(-c2nn[nH]n2)cc1 [MMV690027]	G. lamblia trophozoites (luciferase expressing, WBC6)	24
COc1ccc(-c2cnc3cnc(-c4cccc(OC(C)C)c4)cn23)cc1 [MMV688270]	G. lamblia trophozoites (luciferase expressing, WBC6)	10
c1ccc(-c2nc(NC3CCCCC3)cc(C3CC3)n2)nc1 [MMV021013]	G. lamblia trophozoites (luciferase expressing, WBC6)	65
Cc1cccc(C(=O)Nc2ccnc(N(C)C3CCN(CC(C)C)CC3)c2)c1 [MMV024829]	G. lamblia trophozoites (luciferase expressing, WBC6)	89
Cc1cc(NCCc2ccccc2)nc(NC(=N)Nc2ccc(Cl)cc2)n1 [MMV021660]	G. lamblia trophozoites (luciferase expressing, WBC6)	90
c1ccc(Oc2ccc(-c3cc(CN4CCOCC4)[nH]n3)cc2)cc1 [MMV676161]	G. lamblia trophozoites (luciferase expressing, WBC6)	33
COC(=O)c1c(NC(=O)c2cc3ccccc3oc2=O)sc2c1CCN(Cc1ccccc1)C2 [MMV676480]	G. lamblia trophozoites (luciferase expressing, WBC6)	7
O=C(NCCN1CCCC1)c1cc(NCCCCN2CCC(F)(F)CC2)nc2ccc(Cl)cc12 [MMV667494]	G. lamblia trophozoites (luciferase expressing, WBC6)	82

====

Tested on: G. lamblia trophozoites (luciferase expressing, WBC6)
PROCEDURE SUMMARY: microbe, parasite or virus in culture
Format: cell-based, Giardia lamblia
ASSAY CONTEXT: initial Pathogen Box screen, single concentration 16 µM, inhibition compared to DMSO wells
Below: a set of entries, each annotated with reported Giardia (16 uM) Mean % inhibition.

COMPOUND	Giardia (16 uM) Mean % inhibition, %
CCCn1c(NC(=O)c2ccc3ccccc3n2)nc2ccccc21	13
CC(C)(C(=O)Nc1ccc(F)cc1)n1cc(-c2ccccc2F)cn1	39
Cc1ccc2cc(C3NC(=O)c4ccccc4N3)c(Cl)nc2c1 (stereo not shown)	24
Cc1c[nH]c(CCNC(=O)c2cc(-c3ccc(Cl)cc3)cs2)n1	17
Cc1[nH]c2ccccc2c1C(c1cccs1)N1CCN(C)CC1 (stereo not shown)	9
CCn1cnc2c(Nc3cc(F)cc(F)c3)nc(C#N)nc21	9
O=C(NC1CC1)c1ccc(N2CCOc3ccc(Cl)cc32)s1	4.66
Cc1cccnc1NC(=O)c1cccc(OCc2c(C)noc2C)c1	45
Nc1ncnc2n[nH]c(Cc3cccc4ccccc34)c12	9
FC(F)(F)c1cnc(Sc2nnc(-c3ccncc3)o2)c(Cl)c1	53
COc1ccc(N(CCc2cccc(C)n2)C(=O)C2CCCCC2)cc1	16
CN1CCN(c2cc(-c3ccc(F)cc3)nc(-c3ccncc3)n2)CC1	62
CC(=O)N(CCN(C(=O)c1ccc(F)cc1)c1ccccc1)c1ccccc1	28
CS(=O)(=O)N1CCC(Cn2nc(Cc3cccc4ccccc34)c3c(N)ncnc32)CC1	18
CN1CCN(c2nccc3[nH]c(-c4cccc(F)c4)cc23)CC1	77
O=C(NCc1ccco1)N1CCN(Cc2ccc(Cl)s2)CC1	34
